Tested on: human leukocyte (WBC) cells
Test Description: Stimulation and proliferation of leukocytes, Alamar Blue
Type: cell-based
Stated Conditions: 1 ug/ml, 48 hours
No end group written: not given here.
The following substances are shown together with reported Peptide treated cell activity Percent stimulation relative to control values.
Give just the number in %; leave the unit off.

// known answers, use as guide
{"Substance": "FALKALKKLKKALKKAL-NH2 [compound 115]", "Units Of Measure": "%", "Readout Number": 92}
{"Substance": "FAKLLAKLAKAKA-NH2 [compound 61]", "Units Of Measure": "%", "Readout Number": 115}
{"Substance": "FAKKLAKLAKKLLAL-NH2 [compound 20]", "Units Of Measure": "%", "Readout Number": 82}
{"Substance": "FAVGLRAIKRALKKLRRGVRKVAKDL-NH2 [compound 119]", "Units Of Measure": "%", "Readout Number": 108}
{"Substance": "FALALKALKKLKKALKKAL-NH2 [compound 12]", "Units Of Measure": "%", "Readout Number": 110}

[in] Reported Peptide treated cell activity Percent stimulation relative to control for FAKLLAKALKKAL-NH2 [compound 66] : what is it?
[out] 102

[in] Reported Peptide treated cell activity Percent stimulation relative to control for MPKWKVFKKIEKVGRNIRNGIVKAGPAIAVLGEAKALG-NH2 [compound 5] : what is it?
[out] 115

[in] Reported Peptide treated cell activity Percent stimulation relative to control for FALALKALKKLAKKLKKLAKKAL-NH2 [compound 10] : what is it?
[out] 104

[in] Reported Peptide treated cell activity Percent stimulation relative to control for MPKEKVFLKIEKMGRNIRN-NH2 [compound 71] : what is it?
[out] 100

[in] Reported Peptide treated cell activity Percent stimulation relative to control for FAKKFAKKFKKFAKKFAKFAFAF-NH2 [compound 147] : what is it?
[out] 94

[in] Reported Peptide treated cell activity Percent stimulation relative to control for FAKALAKLAKKLL-NH2 [compound 58] : what is it?
[out] 112

[in] Reported Peptide treated cell activity Percent stimulation relative to control for LPKWKVFKKIEKVGRNIRNGIVKAGPAIAVLGEAKALG-NH2 [compound 150] : what is it?
[out] 101

[in] Reported Peptide treated cell activity Percent stimulation relative to control for VAKLLAKLAKKLL-NH2 [compound 30] : what is it?
[out] 68

[in] Reported Peptide treated cell activity Percent stimulation relative to control for FAKLLAKLAKKLL-NH2 [compound 25] : what is it?
[out] 82

[in] Reported Peptide treated cell activity Percent stimulation relative to control for FAKLLALALKKAL-NH2 [compound 165] : what is it?
[out] 109

[in] Reported Peptide treated cell activity Percent stimulation relative to control for FALALKALKKALKKLKKALKKAL-NH2 [compound 2] : what is it?
[out] 118

* * *

Test system: hairless rat skin burn wound
Test Description: In vivo wound healing, TCA chemically induced skin burn wound
Stated Conditions: rat model, TCA burn treated by peptide
No end group written: not given here.
Measure: Leukocyte cells in test area

[in] Reported Leukocyte cells in test area for MPKEKVFLKIEKMGRNIRN-NH2 [P107, reference compound] : what is it?
[out] 400 % of normal skin

[in] Reported Leukocyte cells in test area for FAKLLAKALKKAL-NH2 [P102, FAKLLAKALKKAL-NH2] : what is it?
[out] 370 % of normal skin

[in] Reported Leukocyte cells in test area for FALKALKKLKKALKKAL-NH2 [P153] : what is it?
[out] 235 % of normal skin

[in] Reported Leukocyte cells in test area for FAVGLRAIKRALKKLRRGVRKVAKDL-NH2 [P157, reference compound] : what is it?
[out] 265 % of normal skin

* * *

The following substances are shown together with reported CC50 at 24 h values.
Test Description: in vitro
Stated Conditions: human, WI38 normal lung fibroblast cells, LD50 WI38, WI38 normal lung fibroblast line, MTT, 24 hours with peptide
No end group written: not given here.
Give just the number in µg/mL; leave the unit off.

// known answers, use as guide
{"Substance": "FAKKLKKLAKLAKKL-NH2 [P46]", "Units Of Measure": "µg/mL", "CC50 at 24 h": 200}
{"Substance": "FALALKALKKL-NH2 [P165]", "Units Of Measure": "µg/mL", "CC50 at 24 h": 470}
{"Substance": "FAKKLAKKLKKLAKKLAKLAKKL-NH2 [P307, reference compound]", "Units Of Measure": "µg/mL", "CC50 at 24 h": 75}
{"Substance": "FAKLLAKLAKKSL-NH2 [P127]", "Units Of Measure": "µg/mL", "CC50 at 24 h": 760}
{"Substance": "VALALKALKKLLKKLKKLAKKAL-NH2 [03 AMV]", "Units Of Measure": "µg/mL", "CC50 at 24 h": 77}

[in] Reported CC50 at 24 h for FAKKLAKKLKKLAKLALAL-OH [P29] : what is it?
[out] 520

* * *

Test Description: in vitro
Stated Conditions: human, WI38 normal lung fibroblast cells
No end group written: not given here.
Measure: CC50 at 24 h

[in] Reported CC50 at 24 h for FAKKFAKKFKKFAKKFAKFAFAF-NH2 [compound 147] : what is it?
[out] 66 µg/mL

* * *

Test Description: Solubility of peptides in sheep serum
Format: physicochemical
Stated Conditions: sheep, 70% sheep serum
No end group written: not given here.
Measure: Solubility

[in] Reported Solubility for FALKALKKLKKALKKAL-NH2 [P153] : what is it?
[out] ≥ 1280 µg/mL

[in] Reported Solubility for VALALKALKKALKKLKKALKKAL-OH [P508] : what is it?
[out] ≥ 1280 µg/mL

* * *

Test Description: Synergy of Shiva-1 and lysozyme, percent viability;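 note: Lysozyme at ten times the molar concentration of the peptide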
Assay type: cell-based, Staphylococcus intermedius
Stated Conditions: S. intermedius 19930
No end group written: not given here.
Measure: viability at 0.01 µM (%)
Give just the number in %; leave the unit off.

{"Substance": "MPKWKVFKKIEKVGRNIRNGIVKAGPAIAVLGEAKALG-NH2 (C-terminus assumed) [SB-37]", "Measure": "viability at 0.01 µM", "Readout Number": 100}

[in] Reported viability at 0.01 µM for MPRWRLFRRIDRVGKQIKQGILRAGPAIALVGDARAVG [Shiva-1] : what is it?
[out] 100

* * *

Tested on: P. aeruginosa H374
Type: cell-based, Pseudomonas aeruginosa
Stated Conditions: Table 14; in µg/mL
No end group written: not given here.
Measure: MIC P. aeruginosa H374

[in] Reported MIC P. aeruginosa H374 for FAKIIAKIAKIAKKIL-NH2 [P139 (101)] : what is it?
[out] >128

[in] Reported MIC P. aeruginosa H374 for VALALKALKKL-NH2 [P180 (141)] : what is it?
[out] >128

[in] Reported MIC P. aeruginosa H374 for FAKKLAKALL-NH2 [P58 (38)] : what is it?
[out] >128

[in] Reported MIC P. aeruginosa H374 for FAKLLAKLAKKSL-NH2 [P127 (89)] : what is it?
[out] >128

[in] Reported MIC P. aeruginosa H374 for FAFGKGIGKVGKKLL-NH2 [P133 (95)] : what is it?
[out] >128

[in] Reported MIC P. aeruginosa H374 for FAKLLAKLAK-NH2 [P123 (85)] : what is it?
[out] >128

[in] Reported MIC P. aeruginosa H374 for FAKLLAKLAKK-NH2 [P151 (113)] : what is it?
[out] 128

[in] Reported MIC P. aeruginosa H374 for FALKALKK-NH2 [P145 (107)] : what is it?
[out] >128

[in] Reported MIC P. aeruginosa H374 for FAKLLAKLAKKEL-NH2 [P126 (88)] : what is it?
[out] >128

[in] Reported MIC P. aeruginosa H374 for FAFAKIIAKIAKKII-NH2 [P140 (102)] : what is it?
[out] >128

[in] Reported MIC P. aeruginosa H374 for MPKEKVFLKIEKMGRNIRN-NH2 [P107 (71)] : what is it?
[out] >128

[in] Reported MIC P. aeruginosa H374 for FAKLLAKLAKKFAL-NH2 [P120 (82)] : what is it?
[out] 128

[in] Reported MIC P. aeruginosa H374 for YAKLLAKLAKKAL-NH2 [P155 (117)] : what is it?
[out] >128

[in] Reported MIC P. aeruginosa H374 for FAKLLAKLAKAKG-NH2 [P96 (62)] : what is it?
[out] >128

[in] Reported MIC P. aeruginosa H374 for FALAKALKKAL-NH2 [P166 (127)] : what is it?
[out] >128

[in] Reported MIC P. aeruginosa H374 for FAKLAKKALAKLL-NH2 [P148 (110)] : what is it?
[out] >128

[in] Reported MIC P. aeruginosa H374 for FALKALKKAL-NH2 [P170 (131)] : what is it?
[out] >128

[in] Reported MIC P. aeruginosa H374 for FALALKALKK-NH2 [P169 (130)] : what is it?
[out] 128

[in] Reported MIC P. aeruginosa H374 for FAKLFAKLAKKFAL-NH2 [P121 (83)] : what is it?
[out] >128

[in] Reported MIC P. aeruginosa H374 for FAKLLAKAFKKAL-NH2 [P114 (78)] : what is it?
[out] >128

[in] Reported MIC P. aeruginosa H374 for KWKLAKKALALL-NH2 [P142 (104)] : what is it?
[out] >128

[in] Reported MIC P. aeruginosa H374 for FAKLLAKLAKKAA-NH2 [P93 (59)] : what is it?
[out] 128

[in] Reported MIC P. aeruginosa H374 for FAKLLFKALKKAL-NH2 [P112 (76)] : what is it?
[out] >128
